// reported fold change for each item listed
- PROTOCOL TEXT: sensitizers of A549 cells to miR-34 induction, primary screen, imaging, A549 dox-inducible miR-34, nuclei and caspase counts (AID 1347080); note: test concentration not given here
- PARTICULARS: A549 miR-34 inducible, Hoechst nuclei count, 48 h; measured here: relative caspase fold change +Dox/-Dox
Respond using a number only.

CCCCCC(O)C1C(=O)OC(C)C(O)/C=C/C=C/C=C/C=C/C=C(\C)C(O)CC(O)CC(O)CC(O)CC(O)CC(O)CC1O (stereo not given) : 2.39
CC[C@H]1CN2CCc3cc(OC)c(OC)cc3C2C[C@@H]1CC1NCCc2cc(OC)c(OC)cc21 (stereo not given in full) : 1.51
CS(=O)(=O)c1ccc(C(O)[C@H](CF)NC(=O)C(Cl)Cl)cc1 (stereo not given in full) : 2.12
O=c1[nH]c(=O)n([C@H]2C[C@H](O)C(CO)O2)cc1I (stereo not given in full) : 0.724

Note: attention shifts to another entry.
Query: Which fold change value belongs to CCN(CC)C(=O)C1(c2ccccc2)CC1CN (stereo not given) ?
Reply: 0.893
